Measured Solubility in toluene at 20° C. of individual entries
ASSAY_NOTES: Solubilities of various complexes in toluene at 20° C.
Assay type: physicochemical
REPORTED_CONDITIONS: table title: Solubilities of various complexes
State the value with its unit after it.

Here is how some molecules turned out for Solubility in toluene at 20° C..
CC(C)COc1ccc(-c2ccc3[c](c2)[Ir-3]24([c]5cc(-c6ccc(OCC(C)C)c(OCC(C)C)c6)ccc5-c5cccc[n+]52)([c]2cc(-c5ccc(OCC(C)C)c(OCC(C)C)c5)ccc2-c2cccc[n+]24)[n+]2ccccc2-3)cc1OCC(C)C : 92 g/L
c1ccc(-c2ccc3[c](c2)[Ir-3]24([c]5cc(-c6ccccc6)ccc5-c5cccc[n+]52)([c]2cc(-c5ccccc5)ccc2-c2cccc[n+]24)[n+]2ccccc2-3)cc1 : 6.3 g/L

Task item: Give its Solubility in toluene at 20° C. value. Item: Cc1ccccc1-c1ccc2[c](c1)[Ir-3]13([c]4cc(-c5ccccc5C)ccc4-c4cccc[n+]41)([c]1cc(-c4ccccc4C)ccc1-c1cccc[n+]13)[n+]1ccccc1-2
Reply: 25 g/L

Task item: Any idea what its Solubility in toluene at 20° C. is? The molecule is Cc1ccc(C)c(-c2ccc3[c](c2)[Ir-3]24([c]5cc(-c6cc(C)ccc6C)ccc5-c5cccc[n+]52)([c]2cc(-c5cc(C)ccc5C)ccc2-c2cccc[n+]24)[n+]2ccccc2-3)c1
Reply: 32 g/L
